Target: SARS-CoV-2 full length Spike protein, lineage B.1.1.7 (SARS-CoV-2)
Metric Name: bead assay binding signal

query: Quick one: bead assay binding signal for antibody 1404 (antibody, V domains shown) VH: QITLKESGPTLVKPTQTLTLTCTFSGFSLSISGVGVGWLRQPPGKALEWLALIYWDDDKRYSPSLKSRLTISKDTSKNQVVLKMTNIDPVDTATYYCAHHSISTIFDHWGQGTLVTVSS VL: QSALTQPASVSGSPGQSITISCTATSSDVGDYNYVSWYQQHPGKAPKLMIFEVSDRPSGISNRFSGSKSGNTASLTISGLQAEDEADYYCSSYTTSSAVFGGGTKLTVLG ?
result: 719

Continuing:
query: Quick one: bead assay binding signal for antibody 923 (antibody, V domains shown) VH: EVQLVESGGGVVRPGGSLRLSCAASGFIFDDYDMTWVRQAPGKGLEWVSGISWNGGNTGYADSVKGRFTISRDNAKNSLYLQMNSLRAEDTALYHCAVIMSPIPRYSGYDWAGGAFDIWGQGTMVTVSS VL: SSELTQDPAVSVALGQTVRITCQGDSLRSYYASWYQQKPGQVPILVIYDKNNRPSGIPDRFSGSSSGNTASLTITGAQAEDEADYYCNSRDSSGNAVVFGGGTKLTVLG ?
result: 604

query: Record request: bead assay binding signal value, item antibody 1538 (antibody, V domains shown) VH: EVQLLESGGGLVQPGGSLRLSCAASGFTFSSYAMSWVRQAPGKGLEWVSGISDSGGSTYYADYVKGRFTISRDNSKDTLYLQMNSLRAEDTAVYYCAKDRGNEYALTHYYYYAMDVWGQGTTVTVSS VL: DIQMTQSPSSLSASVGDRVTITCRASQSISSYLNWYQQKPGKAPKLLIYAAYSLQSGVPSRFSGGGSGTDFTLTISSLQPEDFATYFCQQSYSTPITFGQGTRLEIKR
result: 706

query: Item under review: antibody 896 (antibody, V domains shown) VH: EVQLVESGGGVVQPGGSLRLSCAASGFTFDDYAMHWVRQVPGKGLEWVSLISGDGGSTYYADSVKGRFTISRDNSKNSLYVQMNSLRTEDTALYYCVKDRGGSGWDLNHYYYGMDVWGQGTTVTVSS VL: DIQLTQSPSFLSASVGDRVTVTCRASQGISSYLAWYQQKPGKAPKLLIYAAYTLQSGVPSRFSGSGSETEFTLTISSLQPEDFATYYCQQVKSYPLTFGGGTKVEIKR . Reported bead assay binding signal?
result: 692
